system: 857933-349-R-J2-PDC complex spheroids, viability; test: Anticancer human tumor 857933-349-R-J2-PDC patient-derived colon adenocarcinoma cell line growth inhibition [GQUAD]; details: second compound 1 µM; first compound 1 µM; active compounds read low;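 also: spheroids exposed to compounds for one week before readout; percent viability relative to vehicle DMSO wells taken as 100%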
measurement label: viability, T/C (%)
Dear colleague, please return just the value in %, with no unit written.

Below, each entry is followed by its recorded viability, T/C result.
- molecule: "C#Cc1c(F)ccc2cc(O)cc(-c3ncc4c(N5CC6CCC(C5)N6)nc(OCC56CCCN5CC(F)C6)nc4c3F)c12 (stereo not given) + Cc1cnc(CNC(=O)c2c(=O)c3ccc(N4CCCN(C)CC4)nc3n3c2sc2ccccc23)cn1"
  viability, T/C (%): 2.84
- molecule: "COc1cc(C2c3cc4c(cc3C(OC3OC5COC(C)OC5C(O)C3O)C3COC(=O)C23)OCO4)cc(OC)c1O (stereo not given) + Cc1cnc(CNC(=O)c2c(=O)c3ccc(N4CCCN(C)CC4)nc3n3c2sc2ccccc23)cn1"
  viability, T/C (%): 5.9
- molecule: "C=CC(=O)N1CCN(c2nc(=O)n(-c3c(C)ccnc3C(C)C)c3nc(-c4c(O)cccc4F)c(F)cc23)C(C)C1 (stereo not given) + Cc1[nH]c2ccc(F)cc2c1-c1nc2c3cccnc3c3ncccc3c2[nH]1"
  viability, T/C (%): 104
- molecule: "O=C(NO)c1cnc(N2CCN(S(=O)(=O)c3ccc4ccccc4c3)CC2)nc1 + Cc1cnc(CNC(=O)c2c(=O)c3ccc(N4CCCN(C)CC4)nc3n3c2sc2ccccc23)cn1"
  viability, T/C (%): 0.09

In: Tell me viability, T/C reported for COc1ccc([C@@H](O)c2cc(-c3ncnc4cc(N5CCOCC5)ccc34)c(F)cc2Cl)nn1 + Cc1cnc(CNC(=O)c2c(=O)c3ccc(N4CCCN(C)CC4)nc3n3c2sc2ccccc23)cn1
Out: 2.29

In: Fill in viability, T/C for record COc1cccc2c1C(=O)c1c(O)c3c(c(O)c1C2=O)CC(O)(C(=O)CO)CC3OC1CC(N)C(O)C(C)O1 (stereo not given) + Cc1cnc(CNC(=O)c2c(=O)c3ccc(N4CCCN(C)CC4)nc3n3c2sc2ccccc23)cn1
Out: 1.67

In: Fill in viability, T/C for record CC1COCCN1c1cc(C2(S(C)(=N)=O)CC2)nc(-c2ccnc3[nH]ccc23)n1 (stereo not given) + Cc1[nH]c2ccc(F)cc2c1-c1nc2c3cccnc3c3ncccc3c2[nH]1
Out: 83.6
